# tested_system: h-TGR5 (Homo sapiens)
# Construct: expressed in transfected cells
# Sequence (Q8TDU6 whole entry): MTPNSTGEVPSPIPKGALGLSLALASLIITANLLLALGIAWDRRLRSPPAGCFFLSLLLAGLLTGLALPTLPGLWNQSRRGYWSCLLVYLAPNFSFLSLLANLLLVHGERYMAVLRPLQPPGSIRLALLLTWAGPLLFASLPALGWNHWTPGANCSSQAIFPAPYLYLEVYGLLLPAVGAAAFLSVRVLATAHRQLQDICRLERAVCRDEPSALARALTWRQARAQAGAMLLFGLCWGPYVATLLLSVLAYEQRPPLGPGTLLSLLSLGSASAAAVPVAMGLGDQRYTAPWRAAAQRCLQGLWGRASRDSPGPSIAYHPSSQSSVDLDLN
# test_protocol: TGR5 cAMP Assay using Cisbio cAMP Dynamic2 htrf kit (hTGR5CRE-luc HEK 293 cells)
# Assay type: cell-based
# setup_conditions: h-TGR5 cAMP EC50, Table 1; read-out: cAMP (EC50)
pEC50: −log10 of the molar value.
measure: pEC50

Example results:
COc1cc(-n2c(C(C)(C)c3ccc(F)c(Cl)c3)cnc2SCc2c(F)cc(OCCNC(=N)N)cc2F)ccc1F > 7.00
CCNC(=O)NS(=O)(=O)c1ccc(CSc2ncc(C(C)(C)c3ccc(Cl)c(OC)c3)n2-c2ccc(F)cc2)c(Cl)c1 > 7.00
CC(C)(c1ccc(Cl)c(Cl)c1)c1cnc(SCc2ccc(S(=O)(=O)NC(=O)NN3CCCC3)cc2Cl)n1-c1ncc(F)cc1F 5.00 to 6.00

Requested read-out: pEC50. Entry: COc1cc(C(C)(C)c2cnc(SCc3ccnc(N)c3)n2-c2ccc(F)cc2)ccc1Cl
6.00 to 7.00
